Test system: TK-10 renal
Experiment: NCI tumour cell line growth inhibition, 48 h
Collected TGI values appear next to each entry.
MEASUREMENT_NAME: TGI

>  <MOLECULE>
CC(NC(=O)OCc1ccccc1)NC(=O)C(CC(=O)OC(C)(C)C)NC(=O)OC(C)(C)C (configuration not stated)

>  <MEASUREMENT_NAME>
TGI

>  <TEST_VALUE>
> 100 µM

$$$$
>  <MOLECULE>
COC(=O)/C=C\C(C#N)(C#N)N=Cc1ccc(C)s1

>  <MEASUREMENT_NAME>
TGI

>  <TEST_VALUE>
3.8 µM

$$$$
>  <MOLECULE>
NS(=O)(=O)c1ccc(Nc2c3ccccc3nc3c(C(=O)NCCCN(CCO)CCO)cccc23)cc1

>  <MEASUREMENT_NAME>
TGI

>  <TEST_VALUE>
> 100 µM

$$$$
>  <MOLECULE>
C=C1C(=O)O[C@H]2C/C(C)=C/CC/C(C)=C/CC[C@@](C)(O)[C@@H](I)C[C@@H]12

>  <MEASUREMENT_NAME>
TGI

>  <TEST_VALUE>
23.6 µM

$$$$
>  <MOLECULE>
NC1CCCCC1N.O=C([O-])P(=O)([O-])[O-].[Na+].[Pt+4] (configuration not stated)

>  <MEASUREMENT_NAME>
TGI

>  <TEST_VALUE>
> 100 µM

$$$$
>  <MOLECULE>
C=CCC12CCC(=O)C=C1CCC1(C2)OCCO1 (configuration not stated)

>  <MEASUREMENT_NAME>
TGI

>  <TEST_VALUE>
> 100 µM

$$$$
>  <MOLECULE>
OCc1cccc(-c2ccc3ncc(-c4nc(NC5CC5)ncc4F)n3c2)c1

>  <MEASUREMENT_NAME>
TGI

>  <TEST_VALUE>
> 100 µM

$$$$

---

System: OVCAR-4 ovarian
Experiment: NCI tumour cell line growth inhibition, 48 h; in the data active means GI50 below about 0.43 µM; inactive means the rest
Classes used: T for active, F for inactive

>  <COMPOUND>
CC1=C(C(=O)Nc2ccc3[nH]ncc3c2)C(c2ccc(F)cc2)NC(=O)N1 (stereo not drawn)

>  <LABEL_VALUE>
F

$$$$
>  <COMPOUND>
O=C1c2ccccc2-c2c1c1ccc([N+](=O)[O-])cc1c(=O)n2CCNCCCNCCn1c2c(c3ccc([N+](=O)[O-])cc3c1=O)C(=O)c1ccccc1-2

>  <LABEL_VALUE>
T

$$$$
>  <COMPOUND>
COc1ccc(C2=CC(c3cc(OC)c(OC)c(OC)c3)NC(=O)N2)cc1OC (stereo not drawn)

>  <LABEL_VALUE>
F

$$$$
>  <COMPOUND>
CN(C)c1ccc(C(=O)c2ccc(N(C)C)c(N)c2)cc1N

>  <LABEL_VALUE>
F

$$$$
>  <COMPOUND>
OCc1cccc(-c2ccc3ncc(-c4nc(NC5CC5)ncc4F)n3c2)c1

>  <LABEL_VALUE>
T

$$$$
>  <COMPOUND>
COc1ccc(-c2nsc3c2NC(=O)CC3c2ccc3c(c2)OCO3)cc1 (stereo not drawn)

>  <LABEL_VALUE>
F

$$$$
>  <COMPOUND>
CC/C=C\C/C=C\C[C@H](O)C/C=C1/C(=O)C=C[C@H]1C/C=C\CCC(=O)OC

>  <LABEL_VALUE>
F

$$$$
>  <COMPOUND>
NS(=O)(=O)c1ccc(C2C3=C(CCCC3=O)OC3=C2C(=O)c2ccccc2C3=O)cc1 (stereo not drawn)

>  <LABEL_VALUE>
T

$$$$
